- Tested on: Saccharomyces cerevisiae BY4741 SeMeCo community
- experiment-summary: z-score of subpopulation abundance vs DMSO median, subpopulation auxotrophic for U; higher = larger share of this subpopulation than in DMSO controls
- settings: 10 µM; 24 h; SM minimal medium; subpopulation (auxotrophy): U
Entries and their measured z-score of subpopulation abundance follow.
quantity: z-score of subpopulation abundance

{"columns": ["molecule", "experimental-system", "value-measured"],
 "data": [
  ["Cc1cccc(C#Cc2ccccc2)n1", "Saccharomyces cerevisiae BY4741 SeMeCo community", 0.22],
  ["Oc1c(Cl)cc(Cl)c(Cl)c1Cc1c(O)c(Cl)cc(Cl)c1Cl", "Saccharomyces cerevisiae BY4741 SeMeCo community", 0.01],
  ["CCCOc1ccc2[nH]c(NC(=O)OC)nc2c1", "Saccharomyces cerevisiae BY4741 SeMeCo community", 0.5],
  ["COc1ccc2c3c1O[C@H]1C[C@@H](O)C=C[C@@]31CCN(C)C2 [Galanthamine]", "Saccharomyces cerevisiae BY4741 SeMeCo community", -0.51],
  ["CCCC(=O)OCOC(=O)C1=C(C)NC(C)=C(C(=O)OC)C1c1cccc(Cl)c1Cl (stereo unspecified) [Clevidipine Butyrate]", "Saccharomyces cerevisiae BY4741 SeMeCo community", -3.89],
  ["CCCN1C[C@H](C)[C@@H](O)[C@](C)(O)[C@@H](CC)OC(=O)[C@H](C)[C@@H](O[C@H]2C[C@@](C)(OC)[C@@H](O)[C@H](C)O2)[C@H](C)[C@@H](O[C@@H]2O[C@H](C)C[C@H](N(C)C)[C@H]2O)[C@](C)(O)C[C@H]1C", "Saccharomyces cerevisiae BY4741 SeMeCo community", -0.04]
]}
